test system: SF-295 CNS; test: NCI tumour cell line growth inhibition, 48 h
Each entry below carries its reported TGI.

- Molecule: "Cn1cc2ccccc2c1-c1nc(F)nc(F)n1"
  Test System: "SF-295 CNS"
  Reported Metric: "TGI"
  Result: "> 100 µM"
- Molecule: "Oc1c(C(Nc2cccc3cccnc23)c2ccccc2)ccc2cccnc12 (configuration not stated)"
  Test System: "SF-295 CNS"
  Reported Metric: "TGI"
  Result: "> 100 µM"
- Molecule: "COC(=O)/C(C)=C(/CCC1(C)OCCO1)O[Si](C)(C)C"
  Test System: "SF-295 CNS"
  Reported Metric: "TGI"
  Result: "> 100 µM"
- Molecule: "O=C1/C(=C\\c2ccc(O)cc2)CCC/C1=C/c1ccc(Cl)c(Cl)c1"
  Test System: "SF-295 CNS"
  Reported Metric: "TGI"
  Result: "10.1 µM"
- Molecule: "COc1cc2c(c(OC)c1OC)-c1ccc(SC)c(=O)cc1C(CO)C2 (configuration not stated)"
  Test System: "SF-295 CNS"
  Reported Metric: "TGI"
  Result: "> 100 µM"
- Molecule: "CCOc1ccc(NC(=O)C(=O)CC(=O)c2sc(NNC(C)=O)nc2C)cc1"
  Test System: "SF-295 CNS"
  Reported Metric: "TGI"
  Result: "> 100 µM"

Problem: Field request: TGI | item: COc1c(C)c2c(c(O)c1C/C=C(\C)CCC(=O)O)C(=O)OC2
Result: > 100 µM

Problem: Would you mind telling me what TGI value was observed for C=C(C)C(=O)Nc1ccc(NC(C)C)cc1 ?
Result: > 100 µM

Problem: If you can, please state the reported TGI value of COc1cc([C@@H]2OC[C@@H]3C(c4cc(OC)c5c(c4)OCO5)OC[C@@H]32)cc(OC)c1OC (some centres not stated) .
Result: > 100 µM

Problem: What measured TGI goes with Nc1ncnc2c1ncn2C=C=CCO ?
Result: > 100 µM

Problem: Given the molecule O=C1/C(=C/c2ccccc2O)N=C(c2ccccc2)N1C1Nc2cc3c(cc2S1)NC(N1C(=O)/C(=C/c2ccccc2O)N=C1c1ccccc1)S3 (configuration not stated) , what is its reported TGI?
Result: > 100 µM

Problem: # lookup: TGI of CC(C)=CCC/C(C)=C/CC/C(C)=C/CC/C(C)=C/C=C/C=C(\C)CC/C=C(\C)CC/C=C(\C)CCC=C(C)C
Result: > 100 µM

Problem: What does the record list as TGI for COc1cc2ccc(/C=C\[N+](=O)[O-])cc2cc1OC ?
Result: 33.8 µM

Problem: Query (molecule): C[C@]12C=CC(=O)C=C1CC[C@@H]1[C@@H]2CC[C@]2(C)OC(=O)CC[C@@H]12 ; field requested: TGI
Result: > 500 µM

Problem: Please look up its TGI: CCCCOC(=O)C1C2CCC(O2)C1C(=O)OCCCC (configuration not stated)
Result: > 100 µM

Problem: # query: TGI of entry CCc1c2c([nH]c(=S)c1C#N)CCC2
Result: > 100 µM

Problem: May I ask what TGI has been recorded for O=S1(=O)N=C(SCc2ccccc2)N(c2ccccc2)c2ccncc21 ?
Result: > 100 µM
